The reported measurements were obtained from patent US9920017B2.

Answer each item with its documented nematicidal efficacy (formation of galls).
System: Meloidogyne incognita
Assay: Meloidogyne incognita test (MELGIN)
Type: in vivo
Details: 20 ppm; lettuce; after 14 days
Numbers only, in %.

Here is how some compounds turned out for nematicidal efficacy (formation of galls).
O=C(Nc1ncn(-c2c(F)ccc(F)c2F)n1)c1ccccc1Cl [Compound I-1-58]
100
O=C(Nc1ncn(-c2c(F)cccc2F)n1)c1ccccc1C(F)(F)F [Compound I-1-11]
90
CCc1ccccc1C(=O)Nc1ncn(-c2c(F)cccc2C(F)(F)F)n1 [Compound I-1-29]
100
O=C(Nc1ncn(-c2c(F)cccc2Br)n1)c1ccccc1I [Compound I-1-32]
100
O=C(Nc1ncn(-c2c(F)cccc2F)n1)c1ccccc1C(F)F [Compound I-1-18]
100

// each compound listed below needs its nematicidal efficacy (formation of galls)
1. O=C(Nc1ncn(-c2c(F)cccc2F)n1)c1c(F)cccc1C(F)(F)F [Compound I-1-20]
2. O=C(Nc1ncn(-c2c(F)cccc2F)n1)c1ccccc1I [Compound I-1-21]
3. O=C(Nc1ncn(-c2c(F)cccc2C(F)(F)F)n1)c1ccccc1Cl [Compound I-1-27]
4. O=C(Nc1ncn(-c2c(F)cccc2Br)n1)c1ccccc1C(F)(F)F [Compound I-1-30]
5. CCc1cccc(Cl)c1-n1cnc(NC(=O)c2ccccc2C(F)(F)F)n1 [Compound I-1-42]
6. O=C(Nc1ncn(-c2c(F)c(F)cc(F)c2F)n1)c1ccccc1Cl [Compound I-1-92]

Return:
100
100
90
100
90
90

Enquiry: Query: nematicidal efficacy (formation of galls); subject: O=C(Nc1ncn(-c2c(F)ccc(F)c2F)n1)c1ccccc1I [Compound I-1-59]
Return: 100

* * *

Answer each item with its documented logP (neutral).
Experiment: Determination of log P values by HPLC (reversed-phase C18)
Assay type: physicochemical
Settings: compounds of formula (IIa-1), R3 hydrogen
Answers are plain numbers.

// each compound listed below needs its logP (neutral)
1. Nc1ncn(-c2cc(Cl)ccc2Cl)n1
2. Nc1ncn(-c2ccc(Cl)cc2Cl)n1

Return:
[1.44, 1.48]

// each compound listed below needs its logP (neutral)
1. Nc1ncn(-c2c(Br)cc(F)cc2Br)n1
2. COc1cccc(C)c1-n1cnc(N)n1

Return:
1.35
0.98

* * *

Answer each item with its documented logP (neutral).
Experiment: Determination of log P values by HPLC (reversed-phase C18)
Assay type: physicochemical
Conditions: compounds of formula (IIa-1), R3 hydrogen
Experimental: 1) Description of Method for Determination of the Log P Values ([…]) The log P values given in the table were determined in accordance with EEC Directive 79/831 Annex V.A8 by HPLC (High Performance Liquid Chromatography) using a reversed-phase column (C 18). […] Calibration was effected with unbranched alkan-2-ones (having 3 to 16 carbon atoms) with known log P values (log P values determined on the basis of the retention times by linear interpolation between two successive alkanones). […]
Answers are plain numbers.

Here is how some molecules turned out for logP (neutral).
Cc1cccc(Cl)c1-n1cnc(N)n1
1.12
Nc1ncn(-c2c(Cl)cccc2Cl)n1
0.94
Nc1ncn(-c2c(Br)cccc2Br)n1
1.2

Enquiry: Query: logP (neutral); subject: Nc1ncn(-c2c(F)cccc2I)n1
Return: 1.07

* * *

Assay: Determination of log P values by HPLC (reversed-phase C18)
Assay type: physicochemical
Conditions: HPLC, reversed-phase C18, 55° C.; final compounds table
OUTCOME MEASURE: log P neutral
Give bare numbers.

// each compound listed below needs its log P neutral
1. Cc1cccc(C)c1-n1cnc(NC(=O)c2ccccc2C(F)(F)F)n1 [Compound I-1-48]
2. O=C(Nc1ncn(-c2c(F)cccc2Cl)n1)c1ccccc1OC(F)(F)F [Compound I-1-34]
3. O=C(Nc1ncn(-c2c(F)cccc2Cl)n1)c1ccccc1I [Compound I-1-35]
4. O=C(Nc1ncn(-c2c(F)cccc2I)n1)c1ccccc1Cl [Compound I-1-84]
5. Cc1cccc(C)c1-n1cnc(NC(=O)c2ccccc2Cl)n1 [Compound I-1-47]

Return:
2.26
2.30
2.04
2.02
2.04

// each compound listed below needs its log P neutral
1. O=C(Nc1ncn(-c2c(F)cccc2F)n1)c1ccccc1I [Compound I-1-21]
2. O=C(Nc1ncn(-c2c(Br)cc(F)cc2Br)n1)c1ccccc1Cl [Compound I-1-88]
3. O=C(Nc1ncn(-c2c(F)ccc(F)c2F)n1)c1ccccc1C(F)(F)F [Compound I-1-57]
4. O=C(Nc1ncn(-c2c(Cl)cccc2Cl)n1)c1ccccc1Cl [Compound I-1-46]
5. CCc1cccc(Cl)c1-n1cnc(NC(=O)c2ccccc2Cl)n1 [Compound I-1-43]
6. O=C(Nc1ncn(-c2ccccc2OC(F)(F)F)n1)c1ccccc1Cl [Compound I-1-9]
7. O=C(Nc1ncn(-c2c(F)cc(F)cc2F)n1)c1ccccc1Cl [Compound I-1-62]
8. O=C(Nc1ncn(-c2ccccc2F)n1)c1ccccc1C(F)(F)F [Compound I-1-2]

Return:
1.89
2.26
2.10
2.03
2.36
2.32
1.85
2.06

// each compound listed below needs its log P neutral
1. O=C(Nc1ncn(-c2c(F)cccc2C(F)(F)F)n1)c1ccccc1Cl [Compound I-1-27]
2. O=C(Nc1ncn(-c2ccccc2I)n1)c1ccccc1I [Compound I-1-77]
3. O=C(Nc1ncn(-c2c(F)cccc2Cl)n1)c1ccccc1C(F)(F)F [Compound I-1-33]
4. O=C(Nc1ncn(-c2c(Cl)cccc2Cl)n1)c1ccccc1Br [Compound I-1-45]

Return:
1. 2.06
2. 2.15
3. 2.10
4. 2.09
